Test: yeast display, Sf9 membrane polyspecificity reagent, FACS + sequencing; frameworks hold sequencing errors
PROPERTY_NAME: polyreactivity (PSR sort gate)

SEQUENCE_TEXT	READING
QVQLVESGGGLVPAGGSLRLSCAASGFIFSRYDMGCYRQAPGKERELVAAIDWSGDSTYYADSVKGRFTISRDNAKNTVYFQMNSLKPEDTAVYYCAAGQDGDSDWGQGTQVTVSS	low polyreactivity
QVQLVESGGGLVQAGGSLRLSCAASGSISKINAMGWYRQAPGKERELVAAINTGDSTYYADSVKGRFTISRDNAKNTVYLQMNSLKPEDTAVYYCAAEGSPTGYDYWGQGTQVTVSS	low polyreactivity
QVQLVESGGGLVQAGGSLRLSCAASGFTFYYNAMGWYRQAPGKERELVSIRFRGGNTYYADSVKVRFTISRDNAKNTVYLQMNSLKPVDTAVYYCNADDRVSTYVDFDYWGQGTQVTVSS	low polyreactivity
QVQLVESGGGLVQAGGSLRLSCAASGRTFAAYAMGWYRQAPGKERELVATIRRGGTTDYADSVKGRFTISRDNAKNTVYLQMNSLKPEDTAVYYCNARSRTYRTRRYDYWGQGTQVTVSS	high polyreactivity
QVQLVESGGGLVQAGGSLRLSCAASGRIFGHNAMGWYRQAPGKERELVATISSGVRTNYADSVKGRFTISRDNAKNTVYLQMNSLKPEDTAVYYCATKTYQFGYSSYYYWGQGTQVTVSS	high polyreactivity

###

Experiment: yeast display, Sf9 membrane polyspecificity reagent, FACS + sequencing; frameworks hold sequencing errors

SEQUENCE_TEXT	polyreactivity (PSR sort gate)
QVQLVESGGGLVQAGGSLRLSCAASGRTFGTYAMGWYRQAPGKERELVAAISTRDGSTYYADSVKGRFTISRDNAKNTVYLQMNSLKPEDTAVYYCNATWSVPSGQYDYWGQGTQVTVSS	low polyreactivity
QVQLVESGGGLVQARRSLRLSCAASGSTFVQYAMGWDRQAPGNERELVASISYSTGSSTYYADSVKGRFTISRDNAKTTVYLQMNSLKPEDTAFYECAAGIPKGGWSRPRYYYWGQGTQVTVSS	high polyreactivity
QVQHVESGGGLVQAGGSLRLSCAASESILNRYVMGWYRQATGKERELVCTYYADSVKVRFTISRDNAKNTVYLQMNSLKPEDTAVYYCAADVYLYYAGSRYYYWGQGTQVTVSS	low polyreactivity
QVQLVESGGGLVQAGGSLRLSCAASGSIISSNAMGWYRQAPGKEREMVAAITWSGGSTYYADSVKGRFTNSRDNAKNTVYLQMNSLKPEDTAVYYCAADQWRYDGSFTGYGYWGQGTQVTVSS	low polyreactivity
QVQLVESGGGLVQAGGSLGLSCAASGRTFGPYAMGWYRQAPGKERELVAAISASGASTSYADSVKGRFTIARDNAKNTVYLQMNSLKPEDTAVYYCARSYYHRPFGYWGQGTQVTVSS	low polyreactivity
QVQLVESGGGLVQAGGSLRLSCAASGITFTAYAMGWYRQAPGKEREFVAVITRSGGSTYYADSVKGRFTISRDNAKNTVYLQMNSLKPEDTAVYYCAAETSYRYGWYYYWGQGTQVTVSS	high polyreactivity
QVQLVESGGGLVQAGGSLRLSCAASGRILHRYVMGWNRQAPGKERELVAAISSGGSTTYADSVKGRFTISRDNAKNTVYLQMNSLKPEATAVYYCAKYSFWRTSRMDFWGQGTQVTVSS	low polyreactivity
QVQLVESGGGLVQAGGSLRLSCAASGRIIEHNAMGWYRQAPGKERELVAAINYSGGSTYYADSVKGRFTISRDNAKNTVYLQMNSLKPEDTAVYYCATRTGHWGQGTQVTVSS	low polyreactivity
QVQLVESGGGLVQAGGSLRLSCAASGFTFAVYVMGWYRQAPGKERELVATISFSVGSTYYADSVKGRFTISGDNAKNTVYLQMNRLKPEDTAVYYCNADPPPEYYPDKDNYWGQGTQVTVSS	low polyreactivity
QVHLVESGGGLVQAGGSLRLSCAASGFIFYSNSMGWYRPAPGKERELVAAISSGGGSTRYADSVKGRFTISRDNAKNTVYLQMNSLKPEDTAVYYCASRDGYTIFRSTRYYYWGEGTQVTVSS	high polyreactivity
QVQLVESGGGLVQAGGSLRLICAASGSNFNPYAMGWYRQAPGKERELVAAINSGDSTNYADSVKGRFSISRDNAKNTLYLQMNSLKPEDTAVFYCANRYRRRYNYWGQGTQETVSS	high polyreactivity
QVLLQESGGGLVQPGGSLLLSCAASGNIFSAGGMGWYRQAPVNEPELVAGIGTGTSTNYADSVKGRFTISRDNAKNTVFLQMNSLNPEDTAVYYCAAAYYSGLSHWYWGQGTQVTVSS	low polyreactivity
QVQLVESGGGIVQEGRSLSISCAASGSTFYTYAMGWYRPAPGKERELVAAITQSGGRTYYADSVKGRFTISRDNANNTVYLEMNSLKPEDTAVDYCNAPPYTGYDWGQGTQVSVSS	high polyreactivity
QVQLVESGGGLVQAGGSLRLSCAASGFIFRRNAMGWYRQAPGKEREFVAAITWSGGSTYYADSVKGRFTISRDNAKYTVYLQMNSLKPEDTAVYYCAATYSQYWYTKYLNSYPGYDYWGQGTQVTVSS	low polyreactivity
QVQLVESGGGLVQAGGSLRLRCAASGFIFPQYAMGWYRQAPGKEREKVAAISWSGTRTYYADSVKGRFTISRDNAKNTVYLQMNSLKPEDTADYYCAARIDRQYRWTGFGYWGQGTQVTVSS	high polyreactivity
QVQLVESGGGLVQAGGSLRLSCAAYGRIFGVYAMGWYRPAPGKERELVAAIERRGGTTYYADSVKGRITISRDMAKNTVYLQLNSLKPEDTAVYYCATGSIAAGHYAYNYWGQGTQVTVSS	high polyreactivity
QVQLVESGGGLVQAGGSLRLSCAASGSTFDVNAMGWYRQAPGKERELVAAISWNSGSTYYADSVKGRFTISRDNAKNTVYLQMNSLKPEDTAVYYCAATYGTGRRSKYGYWGQGTQVTVSS	high polyreactivity
QVQLVESGGGLVQAGGSLRLSCSASGSTFDGNAMVWYRQAPGKERELVAAITQRASNTYYADSVKGRFTISRDNAKNTVYLQMNSLKPEDTAVYYCNADFYVTSAEFYYWGQGSQVTVSS	low polyreactivity
KVKLVESGGGLVQAGGSLRLSCAASGITSWYYAMGWYRQAPGKERELVAAITSDGSTYYADSVKGRFTISRDNAKNTVYLQMNSLKPEVTAVYYCAAERDYWIPDSYLVGMDFWGLGTQVTVSS	low polyreactivity
QVQLVESGGGLVQAGGSLRLSCAASGIILYYNAMGWYRQAPGKERALVAAITTSGVSTYYADSVKGRFTISRDNAKNTVYLQMNSLKPEDTAVYYCNADYLYGRYTYDYWGQGTQVTVSS	low polyreactivity
QVQLVESGGGLVQAGGSLRLSCAASGRITFSHNTMGWYRQAPGKERELVAAISSGGRTNYADSVKGRFTISRDNAKNTVYLQMNSLKPEDTGVYYCARESHYDFIYDGMDYWGQGTQVTVSS	low polyreactivity

###

Assay: yeast display, Sf9 membrane polyspecificity reagent, FACS + sequencing; frameworks hold sequencing errors

SEQUENCE_TEXT	polyreactivity (PSR sort gate)
QVQLVESGGGLVQAGGSLRLSCAASGRTFYLYAMGWYRPAPGKERELVAAITWSGGSTYYADSVKGRFTISRYNAKNTVFLQMNSLKPEDTAVYYCAAGLYLFQIWFGNEYDYWGQGTQVTVSS	high polyreactivity
QVQLVESGGGLVQAGGSLRLSCAASGSTFYSNAMGWYRQAPGKERELVARISWIGTSTYYADSVKGRFTISRDNAKNTVYLQMNSLKPEDTAVYDCAAGTVGPRRRRYIWLDYWGQGTQVTVSS	high polyreactivity
QVQLVESGGGLVQAGGSLRLSCAASGSTFTGNAMGWYRQAPGKERELVASINGSSGSTYYADSVKGRFTISRDNAKNTVYLQMNSLKPEDTAVYYCAKDSFLHFPLVGWVGLEYWGQGTQVTVSS	low polyreactivity
QVQLVESGGGLVQAGGSLRLSCAASGNSFYSYAMGRYRQAPGKERELVAAITIDGSTTYADSVKGRFTISRDNAKNTVYLQMNSLKPEDTAVSYCNADGFTSDPYDSDDWGQGTLVTVSS	low polyreactivity
QVQLVESGRGLVQAGGSLRLSCAASVGTFDKNAMGCYRQAPGNERELVAALTYGGGSTYYADSVKGRFTISRDNAKNTVYLQMNSLKPEDTAVYYCAVAIITYPYATGSSYDYWGQGTQVTVSS	low polyreactivity
QVQLVESGGGLVQAGGSLRLSCAASGSTFWENSMGWYRQAPGKERELVAAISWGGGSTYYADSVKGRFTISRDNAKNTVYLQMNSLKPEDTAGYYCAADQTSPQFLTSYGGYNYWGQGTQVTVSS	low polyreactivity
QVQHVESGGGLVQAGGSLRLSCAASGRIFLHNAMGWYRQAPGKERELVAAITGGGSTYYADSVKGRFTISRDNAKNTVYLQMNSLKPEDTAVYYCATLGSLRYYWPGYDYWGQGTQVTVSS	low polyreactivity
HVQLVESGGGLVQAGGSLRLSCAASGFTFGYYAMGWYRQAPGKERELVAAISSSGGSTYYADSVKGRFTISRDNAKNTVYLQMNSLKPEDTAVYFCAVVVFSRVYRYFTSDYWGQGTQVTVSS	high polyreactivity
QVQLVESGGGLVQAGGSLRLSCAASGIYINAMGWYRQAPGKERELVAAISRGGSTYYADSVKGRFTISRDNAKNTVYLKMNSLKPEDTAVYYCAKLIGRWRLYHTFVKGDYWGQGTQVTVSS	high polyreactivity
QVQLVESGGGLVQAGGSLRLSCAATRRIFRRNPMGWYIQAPGKERELVATISANGGSTYYADSVKGRFTISRDNAKNTVYLQMNSLKPEATAVYYCAAQGWSWYWYQKIYYWGQGTQVTVSS	high polyreactivity
QVQLVESGGGLVQAGGSLRLSCAASGSTFRDNAMGWYRQAPGKERELVAAITVIDGTTYYADSVKGRFTISRDNAKNTVYLQMKSLKPEDTAVYYCAADTIWYEYYYWGQGTQVTVSS	low polyreactivity
